Entry source: patent US20260201008A1

biological target: human secretin receptor (hSCTR) (human, UniProt P47872 23-440); test: cell-based or functional assay
Sequence (P47872 23-440): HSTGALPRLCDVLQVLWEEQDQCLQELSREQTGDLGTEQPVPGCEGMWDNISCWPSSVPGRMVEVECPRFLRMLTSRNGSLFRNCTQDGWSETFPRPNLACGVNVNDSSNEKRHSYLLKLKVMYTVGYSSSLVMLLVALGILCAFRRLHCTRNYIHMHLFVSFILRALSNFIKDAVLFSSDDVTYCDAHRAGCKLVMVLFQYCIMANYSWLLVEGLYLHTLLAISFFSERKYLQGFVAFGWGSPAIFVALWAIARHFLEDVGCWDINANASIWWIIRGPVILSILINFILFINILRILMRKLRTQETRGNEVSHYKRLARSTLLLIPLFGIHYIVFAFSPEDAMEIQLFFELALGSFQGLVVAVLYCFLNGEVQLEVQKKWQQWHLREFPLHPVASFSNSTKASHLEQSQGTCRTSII
Numbered stars: 1 amine (or outer) side, 2 acyl side, 3 side chain; on linkers, the order of the positions; unused ones are H or OH. Square brackets hold non-standard residues; d marks the D form. Side chains are listed from the residue outwards. Ends that are not written are not given here. * marks the point of attachment. C20 diacid = O=C(O)CCCCCCCCCCCCCCCCCCC(=O)*; γGlu = O=C(O)[C@H](CCC(=O)[*:2])N[*:1]; AEEA = NCCOCCOCC(=O)O; Aib = CC(C)(N)C(=O)O

binder	pEC50 hSCTR
H[Aib]EGTFTSDVSYLKEEAAEQRFLEHLV-NH2 (not fully specified (residue 14)) [SEQ ID NO: 95]	4.8 -log M
H[Aib]EGTFTSDVSELK([AEEA-AEEA-γGlu-C20 diacid])E[Aib]AAEQRFLEHLV-NH2 [SEQ ID NO: 18]	6.3 -log M
H[Aib]EGTFTSDVSLLKEEA[Aib]LQRFLEHLV-NH2 (not fully specified (residue 14)) [SEQ ID NO: 149]	7.5 -log M
H[Aib]EGTFTSDVSYLYEEA[Aib]LQRFLEKLV-NH2 (not fully specified (residue 25)) [SEQ ID NO: 143]	6.1 -log M
H[Aib]EGTFTSDVSVLK([AEEA-AEEA-γGlu-C20 diacid])ETAAAQRFLEHLV-NH2 [SEQ ID NO: 62]	5.7 -log M
